Some binders, each annotated with its measured pKd.
Target: T1, prefusion-stabilized RSV F ectodomain (DS-Cav1), subtype B (respiratory syncytial virus subtype B)
T1 construct: extracellular domain; also called Prefusion subtype B
Experiment: BLI, IgG on sensor
# pKd: negative log10 of molar concentration; output just the value

Here's what some known entries look like.
BINDER	pKd
ADI-15654 (antibody, V domains shown, IgG; also called Antibody Number 218) VH: QVQLVQSGAEVKRPGSSVKVSCKASGGTSSSYIISWVRQAPGQGLEWMGGIIPIPISGAPTYAQKFQGRANYAQKFEGRLTITADRLTSTAYMELSSLTSEDTAVYYCVRDERNGGYWGQGTLVTVSS VL: QSALTQPASVSGSPGQSITISCTGTSNDVGAYNHVSWYQQHPGKAPKLMIYDVTNRPSGVSNRFSGSKSGNTASLTIFGLQTDDEADYYCSSYTISSTLVFGGGTQLTVL	8.35
ADI-15615 (antibody, V domains shown, IgG; also called Antibody Number 180) VH: EVQLVETGGGLVKPGGSLRLSCAGSGFTFSSYTLNWVRQAPGKGLEWVSSISSSSTYIYYADSVKGRFTISRDNAKNSLHLQMNSLRAEDTAVYYCARADYDRSVYHLNWLDPWGQGTLVTVSS VL: QPVLTQPPSVSGAPGQRVTISCTGSSSNIGAGYDVHWYQQLPGAAPKLLIYGNTNRPSGVPDRFSGSKSGTSASLAITGLQADDEADYYCQSYDSSLSGTWVFGGGTKLTVL	7.93

// sample ADI-15648 (antibody, V domains shown, IgG; also called Antibody Number 212) VH: EVQLVESGGGLVKPGGSLRLSCAASGFTISGYNMFWVRQPPGKGLEWVSSITAGSSYLNYADSVKGRFIVSRDNAKNSLYLQMNSLRAEDTAVYFCARAPLLPAMMDLWGQGTTVTVSS VL: QSVVTQPPSVSGAPGQRVTISCTGSSSNIGAGYDVHWYQQLPGTAPKLLIYTNNNRPSGVPDRFSGSKSGTSASLAITGLQAEDEADYYCQSYDRSLNGYVFGTGTTVTVL , its pKd was 9.36

// sample ADI-15600 (antibody, V domains shown, IgG; also called Antibody Number 166) VH: EVQLVESGGGLIQPGGSLRLSCAVSGFSVSSNYISWVRQPPGKGLEWVSVSYSSGVTDYADSVKGRFTTSRDNSKNTLYLQMNSLRGEDTAVYYCARELVPNFYESHGYFSVWGQGTLVTVSS VL: DIVMTQSPGTLSLSPGERATLSCRASQRVDSSYLAWYQQKPGQAPRLLIYGGSSRATGIPDRFSGSGSGTDFTLTISRLEPEDFALYYCQQYGFSQTFGQGTKVEIK , its pKd was 8.85

// sample ADI-15568 (antibody, V domains shown, IgG) VH: QVQLVESGAEVQKPGASVKISCKASGYKFISYSIHWVRQAPGQGLEWMGVINPGGGLTNYAQKFQDRLTMTRDTSTATVTMELRSLRSDDRAVYFCGREDSYCSGDSCFNSGSGRWVDSWGQGTLVTVSS VL: DIQVTQSPSSLSASVGDRVTITCRASQSVITYLNWYQQKPGKAPQLLVYAASILQSGVPSSFSGSGSGTDFTLTISSLQPEDFATYYCQQTYSTPHTFGQGTKVDIK , its pKd was 9.16
